assay: Drug concentration in female CD-1 mouse plasma at 11 mg/kg, po measured after 0.5 hrs by LC-MS/MS analysis; type: ADME, organism-based

{"Smiles": "COc1cc2nc3n(c(=O)c2cc1Cl)CC[C@H]1[C@H]3CCCN1CC1COC1", "concentration at 0.5 h (ng/mL)": 469}

----------
assay: Drug concentration in female CD-1 mouse plasma at 11 mg/kg, iv measured after 2 hrs by LC-MS/MS analysis; type: ADME, organism-based
Quantity Measured: concentration at 2 h

{"Smiles": "COc1cc2nc3n(c(=O)c2cc1Cl)CC[C@H]1[C@H]3CCCN1CC1COC1", "Quantity Measured": "concentration at 2 h", "Recorded Value": "882 ng/mL"}
